experiment: Permeability across MDCK cells; format: ADME, cell-based, Canis lupus familiaris; conditions: dog, read-out: permeability
Quick list: Papp per entry.
endpoint: Papp

1) O=c1nc(NCc2ccc(N3CCOCC3)cc2)c2cccnc2n1O :: 1.4 ×10⁻⁶ cm/s
2) O=c1nc(Nc2ccc(N3CCOCC3)cc2)c2cccnc2n1O :: 0.7 ×10⁻⁶ cm/s
3) O=c1nc(Nc2ccc(CN3CCOCC3)cc2)c2cccnc2n1O :: 0.5 ×10⁻⁶ cm/s
